LMA: recorded values
system: Rattus norvegicus; test: Evaluated for locomotor activity in nonpretreated habituated rats at 100 umol/kg of subcuteneous dose; assay type: functional; parameters: unit not given here
The reply should be a number, written without any unit.

Solved cases (5 shown):
chemical_string=CCCN1CCC[C@@H](c2cccc(OS(=O)(=O)C(F)(F)F)c2)C1 reported_value=290
chemical_string=CCCN1CCC[C@@H](c2cccc(SC)c2)C1 reported_value=313
chemical_string=C#Cc1cccc([C@@H]2CCCN(CCC)C2)c1 reported_value=671
chemical_string=CCCN1CCC[C@@H](c2cccc(OS(=O)(=O)c3ccc(C)cc3)c2)C1 reported_value=152
chemical_string=CCCN1CCC[C@@H](c2cccc(Br)c2)C1 reported_value=470

Turning now to a further record.
q: Can you look up the measured LMA of `CCCN1CCC[C@@H](c2cccc(C=O)c2)C1` for me?
a: 208

###

biological target: D(3) dopamine receptor (Homo sapiens, UniProt P35462); assay: Tested for in vitro binding affinity against cloned mammalian dopamine D3 receptor, expressed in CHO-K1 cells, using [3H]spiperone as radioligand; assay type: cell-based
Sequence (P35462 whole entry): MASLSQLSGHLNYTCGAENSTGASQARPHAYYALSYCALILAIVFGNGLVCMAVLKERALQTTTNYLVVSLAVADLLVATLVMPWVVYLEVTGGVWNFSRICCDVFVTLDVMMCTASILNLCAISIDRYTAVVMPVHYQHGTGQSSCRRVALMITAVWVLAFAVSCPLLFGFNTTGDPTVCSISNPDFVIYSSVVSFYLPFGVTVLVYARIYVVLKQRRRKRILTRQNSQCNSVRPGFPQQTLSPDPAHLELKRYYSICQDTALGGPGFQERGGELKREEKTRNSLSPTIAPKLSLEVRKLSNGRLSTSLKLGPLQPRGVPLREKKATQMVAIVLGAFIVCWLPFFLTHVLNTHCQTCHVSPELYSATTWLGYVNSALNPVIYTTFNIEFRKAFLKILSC
Ki values by entry

compound=CCCN1CCC[C@@H](c2cccc(NS(=O)(=O)C(F)(F)F)c2)C1 reported_value="> 2 µM"
compound=CCCN1CCC[C@@H](c2cccc(C(=O)OC)c2)C1 reported_value="> 1.28 µM"

Then this compound:
q: Form field: reported Ki of C=CCN1CCC2c3cccc(C#N)c3CCC21 (stereo not drawn)
a: > 0.455 µM

###

molecular target: D(2) dopamine receptor (Homo sapiens, UniProt P14416); test: biochemical
Sequence (P14416 whole entry): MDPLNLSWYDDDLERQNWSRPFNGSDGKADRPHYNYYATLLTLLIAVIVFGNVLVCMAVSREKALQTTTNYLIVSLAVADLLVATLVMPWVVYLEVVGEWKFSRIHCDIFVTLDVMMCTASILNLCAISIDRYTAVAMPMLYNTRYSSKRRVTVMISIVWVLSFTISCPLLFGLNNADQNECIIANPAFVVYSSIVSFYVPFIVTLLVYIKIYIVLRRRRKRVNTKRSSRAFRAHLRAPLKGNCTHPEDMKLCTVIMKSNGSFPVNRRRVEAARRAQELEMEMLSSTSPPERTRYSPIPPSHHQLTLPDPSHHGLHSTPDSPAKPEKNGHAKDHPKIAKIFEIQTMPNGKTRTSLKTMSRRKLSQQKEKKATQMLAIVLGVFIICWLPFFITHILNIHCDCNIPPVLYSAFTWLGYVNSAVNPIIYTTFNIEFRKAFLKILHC
Description: Affinity against recombinant dopamine receptor (DA) D2 expressed in CHO-K1 cells, using [3H]-spiperone as radioligand
Listed molecules paired with reported Ki

molecule=CCCN1CCC[C@@H](c2cccc(OS(C)(=O)=O)c2)C1 study_system="D(2) dopamine receptor (Homo sapiens, UniProt P14416)" reported_value="> 0.217 µM"
molecule=CCCN1CCC[C@@H](c2cccc(C=O)c2)C1 study_system="D(2) dopamine receptor (Homo sapiens, UniProt P14416)" reported_value="0.145 µM"

q: Lookup: Ki / D(2) dopamine receptor (Homo sapiens, UniProt P14416) / `CCCN1CCC[C@@H](c2ccc(OS(=O)(=O)C(F)(F)F)cc2)C1`
a: > 0.217 µM

q: Identify the measured Ki of `CCCN1CCC[C@@H](c2cccc(Br)c2)C1` for D(2) dopamine receptor (Homo sapiens, UniProt P14416).
a: 0.17 µM

###

Each item that follows carries a reported Ki.
target: D(2) dopamine receptor (Homo sapiens, UniProt P14416); test: biochemical
Description: In vitro binding affinity against cloned mammalian dopamine D2 autoreceptor, expressed in CHO-K1 cells, using [3H]U-86170 as radioligand

Answered examples (3):
compound=CCCN1CCC[C@@H](c2cccc(C(C)=O)c2)C1 reported_value="> 1.85 µM"
compound="C=CCN1CCC2c3cccc(C(N)=O)c3CCC21 (centres undefined)" reported_value="> 1.5 µM"
compound=CCCN1CCC[C@@H](c2cccc(C(N)=O)c2)C1 reported_value="> 1.85 µM"

# context switch: different compound, same Ki
q: I'd like to know its Ki. The compound in question is `CCCN1CCC[C@@H](c2cccc(C(=O)OC)c2)C1`
a: > 1.85 µM

###

target: UniProt P61169; test: Tested for affinity against striatal dopamine autoreceptor (DA) D2 receptors using [3H]spiperone as radioligand in rats.
Sequence (P61169 whole entry): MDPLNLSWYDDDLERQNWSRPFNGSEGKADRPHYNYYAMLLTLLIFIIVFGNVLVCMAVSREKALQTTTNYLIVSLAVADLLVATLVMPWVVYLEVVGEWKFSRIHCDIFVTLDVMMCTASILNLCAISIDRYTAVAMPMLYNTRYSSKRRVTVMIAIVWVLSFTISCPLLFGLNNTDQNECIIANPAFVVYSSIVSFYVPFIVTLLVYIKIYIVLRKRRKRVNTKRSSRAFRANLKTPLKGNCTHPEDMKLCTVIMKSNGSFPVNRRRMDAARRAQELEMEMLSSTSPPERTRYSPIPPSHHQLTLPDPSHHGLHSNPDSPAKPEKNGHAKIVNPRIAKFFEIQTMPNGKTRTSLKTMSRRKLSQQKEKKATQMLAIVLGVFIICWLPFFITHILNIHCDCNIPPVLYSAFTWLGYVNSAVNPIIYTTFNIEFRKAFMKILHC
Catalogue of molecules with associated Ki

Some molecules with known Ki results, for comparison:
molecule="C=CCN1CCC2c3cccc(OS(=O)(=O)C(F)(F)F)c3CCC21 (stereo not drawn)" outcome_measure=Ki reported_value="> 0.172 µM"
molecule="C=CCN1CC[C@@H]2c3cccc(OS(=O)(=O)C(F)(F)F)c3CC[C@@H]21 (stereo in doubt; 50)" outcome_measure=Ki reported_value="> 0.172 µM"

Kindly consider the entry below.
q: Under UniProt P61169: Ki value of CCCN1CCCC2c3cccc(OS(=O)(=O)C(F)(F)F)c3CCC21 (stereo in doubt; 45) ?
a: > 0.453 µM

###

target: Dopamine receptor; test: Tested for in vitro binding affinity against cloned mammalian dopamine autoreceptor (DA) receptors expressed in CHO-K1 cells using [3H]U-86170 as radioligand; type: cell-based
OUTCOME_MEASURE: Ki

molecule="C=CCN1CC[C@@H]2c3cccc(OS(=O)(=O)C(F)(F)F)c3CC[C@@H]21 (stereo in doubt; 50)" outcome_measure=Ki reported_value="> 1900 nM"
molecule=CCCc1cccc([C@@H]2CCCN(CCC)C2)c1 outcome_measure=Ki reported_value="57 nM"
molecule=CCCN1CCC[C@@H](c2ccccc2)C1 outcome_measure=Ki reported_value="222 nM"
molecule=CCCN1CCC[C@@H](c2ccc(OS(=O)(=O)C(F)(F)F)c(OS(=O)(=O)C(F)(F)F)c2)C1 outcome_measure=Ki reported_value="1100 nM"
molecule="C=CCN1CCC2c3cccc(OS(=O)(=O)C(F)(F)F)c3CCC21 (stereo unspecified)" outcome_measure=Ki reported_value="125 nM"

Now for a further molecule.
q: Quick check: Ki on Dopamine receptor, item `CCCN1CCC[C@@H](c2ccc(OS(=O)(=O)C(F)(F)F)cc2)C1` ?
a: 1736 nM

###

biological target: UniProt P14416; test: biochemical
pKi: −log10 of the molar value.
OUTCOME_MEASURE: pKi

Previously resolved entries follow.
compound=CCCCN1CCC[C@@H](c2cccc(C#N)c2)C1 study_system="UniProt P14416" outcome_measure=pKi reported_value="< 6.66"
compound=CCCN1CCC[C@@H](c2cccc(OCC(F)(F)F)c2)C1 study_system="UniProt P14416" outcome_measure=pKi reported_value="< 6.66"
compound=CCCN1CCC[C@@H](c2cccc(-c3ccsc3)c2)C1 study_system="UniProt P14416" outcome_measure=pKi reported_value="< 6.66"
compound=CCCN1CCC[C@@H](c2cccc(C(C)=O)c2)C1 study_system="UniProt P14416" outcome_measure=pKi reported_value="< 6.66"
compound=CCCN1CCC[C@@H](c2cccc(CO)c2)C1 study_system="UniProt P14416" outcome_measure=pKi reported_value="< 6.66"
compound=C#Cc1cccc([C@@H]2CCCN(CCC)C2)c1 study_system="UniProt P14416" outcome_measure=pKi reported_value="< 6.66"
compound=CCCN1CCC[C@@H](c2cccc(SC)c2)C1 study_system="UniProt P14416" outcome_measure=pKi reported_value="< 6.66"
compound=N#Cc1cccc([C@@H]2CCCN(CCc3ccccc3)C2)c1 study_system="UniProt P14416" outcome_measure=pKi reported_value="< 6.66"

Okay, now this compound:
q: Suppose we examine the compound CCCN1CCCC2c3cccc(OS(=O)(=O)C(F)(F)F)c3CCC21 (stereo in doubt; 46) ; what pKi value has been reported?
a: < 6.66
